# credit: paper PMC7948816

- testedOn: alpha-tropomyosin (Oryctolagus cuniculus, UniProt P58772)
- Sequence (P58772 whole entry): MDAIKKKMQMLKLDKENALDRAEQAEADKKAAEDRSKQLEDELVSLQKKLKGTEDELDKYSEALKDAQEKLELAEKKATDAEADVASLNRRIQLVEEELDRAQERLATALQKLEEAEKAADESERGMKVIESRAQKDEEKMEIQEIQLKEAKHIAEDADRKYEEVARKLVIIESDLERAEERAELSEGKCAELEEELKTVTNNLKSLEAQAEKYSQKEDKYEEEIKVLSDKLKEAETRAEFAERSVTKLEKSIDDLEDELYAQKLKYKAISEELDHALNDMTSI
- experimentDescription: ITC
endpointLabel: Kd

binder: ENREVGDWRKNIDALSGMEGRKKKFES [cardiac troponin I C-terminal peptide HcTnI-C27 184-210]
result: 11 µM
